system: MUC1-wt; test: Immunofluorescence imaging of MUC1-wt in P cells (Example 2); assay type: cell-based; details: 48 hr incubation, MUC1-wt, read-out: WT EC50 (Cytoplasm)
pEC50: −log10 of the molar value. Counter-ions that a name gives are not always drawn.
valueType: pEC50

Examples with their reported pEC50 follow.
* CCC1(CC)[C@@H]2CC[C@@H](C2)[C@@H]1N [Compound 204-P2] | 5.96
* Cl.N[C@@H]1[C@@H]2CC[C@@H](C2)C12CCCCCC2 (racemic) | 5.05

[I] CC1(C)[C@H]2CC[C@H](C2)[C@H]1N (single isomer, unassigned) [Compound 201-P1, hydrochloride]
[II] CC[C@@]1(C)[C@H]2CC[C@H](C2)[C@H]1N (single isomer, unassigned) [Compound 203-P1]
Query: When the recorded pEC50 values are compared, which is smaller: that of I or that of II ? Please indicate the selected item by its label.
Response: I
(I: 4.99, II: 5.57)

====

Consider the following molecules and their measured WT EMax readings.
Tested on: MUC1-wt
Test: Immunofluorescence imaging of MUC1-wt in P cells (Example 2)
Type: cell-based
Conditions: 48 hr, DMSO = 0, JQ1 = −100% activity, in %
Experimental: P cells were seeded 24 hr prior to compound treatment at a density of 12,000 cells/well in 384 well Cell Carrier Ultra plates (6057308, Perkin Elmer), pre-coated with 0.25 mg/mL Synthemax II SC Substrate (3535, Corning). […] Following image analysis, three parameters were selected, i) MUC1-fs and ii) MUC1-wt total cytoplasm intensity (averaged per cell) and iii) cell number as was detected by Hoechst 33342 stained nuclei. […]
Counter-ions that a name gives are not always drawn.
Provide a numeric answer; units are not to be included.

Here's what some known entries look like.
• CC1(C)[C@H]2CC[C@H](C2)[C@@]1(C)N (racemic) [Compound 242, hydrochloride] = 27.7
• NC1C2CCC(C2)C12CCC(O)C2 (racemic) [Compound 249A] = −7.2
• NC1C2CCC(C2)C12CC1CCC2C1 (racemic) [Compound 238-B] = 40.7
• Cl.NC(=O)C1CCCC2(C1)C1CCC(C1)C2N (racemic) = −24.4
• CCC1(CC)[C@H]2CC[C@H](C2)[C@]1(N)c1cccs1.Cl = 5.7
• NC1C2CCC(C2)C12CCC(O)C2 (racemic) [Compound 249C] = −11.9

Noted for Cl.NC1C2CCC(C2)C12CC1CCC2C1 (racemic) : its WT EMax reads 68.9

Sure, the documented WT EMax for Cl.N[C@H]1[C@@H]2CC[C@@H](C2)C12CCCC(C(=O)N1CCCCC1)C2 (some centres unmarked) is −7.0

Lookup result for NC1C2CCC(C2)C12CC1CC1C2 (racemic) ; measured WT EMax: −20.3

The measured WT EMax associated with Cl.N[C@H]1[C@@H]2CC[C@@H](C2)C12CCCC(C(=O)N1CCOCC1)C2 (some centres unmarked) reads −24.5

So, COC1CC2(CC1OC)C1CCC(C1)C2N.Cl (racemic) ? Its WT EMax was 10.3

Data point: Cl.NC1(c2ccccc2)C2CCC(C2)C12CCCC2 (racemic) ; WT EMax = 8.2

Note to self: WT EMax recorded for Cl.NC1C2CCC(C2)C12CC=CC2 (racemic) was 36.5

====

Parameter EC50: see the listing below.
tested on: MUC1-wt; assay: Immunofluorescence imaging of MUC1-wt in P cells (Example 2); assay type: cell-based; conditions: 48 hr incubation, MUC1-wt, read-out: WT EC50 (Cytoplasm)

Known EC50 results, listed for orientation:
- C[C@H]1CC[C@]2(C1)[C@H]1CC[C@H](C1)[C@H]2N.Cl [Compound 211-P1-B]: > 32 µM
- C[C@H]1CC[C@]2(C1)[C@@H]1CC[C@@H](C1)[C@@H]2N.Cl [Compound 210-P2-B]: > 16 µM

Recorded result, Cl.N[C@@H]1[C@@H]2CC[C@@H](C2)[C@]12CC=CCC2 (racemic) [Compound 213] , EC50: > 1.8 µM

response.value for CC[C@@]1(C)[C@@H]2CC[C@@H](C2)[C@@H]1N (single isomer, unassigned) [Compound 202-P2] (field: EC50) = > 1.8 µM

====

test system: FS MUC1; assay: Automated fixation/staining imaging assay, FS MUC1 spot cytoplasm (Example 3); assay type: cell-based; details: 48 hour treatment time
Counter-ions that a name gives are not always drawn.
valueType: IC50 (µM)

- CC(C)[C@@H]1[C@@H]2CC[C@@H](C2)[C@]1(C)N (single isomer, unassigned): 5.87
- N[C@]1(c2ccccc2)[C@@H]2CC[C@@H](C2)C12CCCC2 (racemic): 7.83
- CC(C)[C@H]1[C@@H]2CC[C@@H](C2)[C@]1(C)N (single isomer, unassigned): 2.94

[P] CC1(C)[C@H]2CC[C@H](C2)[C@@]1(C)N (racemic) [Compound 242, hydrochloride]
[Q] CC(C)[C@H]1[C@H]2CC[C@H](C2)[C@]1(C)N (racemic) [Compound 255]
[R] CC(C)[C@H]1[C@H]2CC[C@H](C2)[C@]1(C)N (single isomer, unassigned) [Compound 251]
Query: Hey, quick one: sort these by IC50, largest value first please. Put the labels in the requested order and list them out.
Response: Q, P, R

====

tested on: MUC1-fs; test: Immunofluorescence imaging of MUC1-fs in P cells (Example 2); type: cell-based; settings: 48 hr incubation, MUC1-fs, read-out: EC50
valueType: EC50 (µM)

In the examples that follow, each entry is paired with its recorded EC50.
- CC(C)[C@@]1(C)[C@H]2CC[C@H](C2)[C@@H]1N.Cl [Compound 246-B, hydrochloride]: 6.99
- NC1C2CCC(C2)C12CC1CC1C2 (racemic): 0.962

[a] Cl.N[C@@H]1[C@@H]2CC[C@@H](C2)C12CC1CCC2CC1 (some centres unmarked) [Compound 239, hydrochloride]
[b] NC1C2CCC(C2)C12CC1CCC2C1 (racemic) [Compound 238-A]
Query: Consider entries a and b . Which has the numerically lower EC50? Indicate which entry you chose by stating its label.
Response: b
(b: 0.006 µM, a: 2.29 µM)

====

tested on: MUC1-fs; assay: Immunofluorescence imaging of MUC1-fs in P cells (Example 2); type: cell-based; conditions: 48 hr incubation, MUC1-fs, read-out: EC50
Counter-ions that a name gives are not always drawn.
valueType: EC50 (µM)

- Cl.N[C@H]1[C@@H]2CC[C@@H](C2)C12CCCC(C(=O)N1CCCCC1)C2 (some centres unmarked) [Compound 227-1, hydrochloride]: 3.6
- CC1(C)[C@H]2CC[C@H](C2)[C@@]1(C)N (racemic) [Compound 242, hydrochloride]: 2.43
- CC(C)C1(C)C2CCC(C2)C1N.Cl (racemic) [Compound 245, hydrochloride]: 0.011

[P] COC1CC2(CC1OC)C1CCC(C1)C2N.Cl (racemic) [Compound 229, hydrochloride]
[Q] NC1C2CCC(C2)C12CCC(O)C2 (racemic) [Compound 249A]
Query: Could you tell me which of P and Q has the lower EC50 reading? Select an item and report its label.
Response: Q

====

System: MUC1-wt
Experiment: Immunofluorescence imaging of MUC1-wt in P cells (Example 2)
Assay type: cell-based
Conditions: 48 hr incubation, MUC1-wt, read-out: WT EC50 (Cytoplasm)
Description: P cells were seeded 24 hr prior to compound treatment at a density of 12,000 cells/well in 384 well Cell Carrier Ultra plates (6057308, Perkin Elmer), pre-coated with 0.25 mg/mL Synthemax II SC Substrate (3535, Corning). […] Following image analysis, three parameters were selected, i) MUC1-fs and ii) MUC1-wt total cytoplasm intensity (averaged per cell) and iii) cell number as was detected by Hoechst 33342 stained nuclei. […]
pEC50: −log10 of the molar value.
valueType: pEC50

# annotated cases, reported pEC50 shown
• CC[C@]1(C)[C@H]2CC[C@H](C2)[C@H]1N.Cl (racemic) [Compound 202-rac] = 5.68
• C[C@@H]1CC[C@]2(C1)[C@@H]1CC[C@@H](C1)[C@@H]2N.Cl [Compound 210-P2-A] = < 4.49
• C[C@@H]1CC[C@@]2(C1)[C@H]1CC[C@H](C1)[C@H]2N.Cl [Compound 210-P1-B] = < 4.49
• C[C@@H]1CC[C@]2(C1)[C@H]1CC[C@H](C1)[C@H]2N.Cl [Compound 211-P1-A] = < 5.25
• C[C@H]1CC[C@@]2(C1)[C@@H]1CC[C@@H](C1)[C@@H]2N.Cl [Compound 211-P2-A] = < 4.49
• C[C@@H]1CCC[C@@]2(C1)[C@@H]1CC[C@@H](C1)[C@@H]2N.Cl [Compound 214-P2-B] = < 4.49

Reported pEC50 ( NC1C2CCC(C2)C12CCCCC2 (centres unmarked) [Compound 212-P1] ) = 5.52

Given item C[C@@]1(Cc2ccccc2)[C@H]2CC[C@H](C2)[C@H]1N.Cl (racemic) [Compound 207] , the value recorded as its pEC50 is < 4.49
